# Tested on: HIV
# assayRemarks: microbe, parasite or virus in culture
# Assay type: cell-based, HIV-1
# testParameters: read-out: EC50
measuredQuantity: EC50 (nM)

>  <smilesNotation>
COc1cc2c(O[C@@H]3OC[C@](O)(CO)[C@H]3O)c3c(c(-c4ccc5c(c4)OCO5)c2cc1OC)C(=O)OC3

>  <measuredQuantity>
EC50

>  <readoutNumber>
220

$$$$

====

# assayRemarks: Cytotoxicity evaluation using the SRB assay
# testParameters: human, A549 cells, CC50 (nM), Table 1; inhibition of cell growth of host A549 cells by 50%; triplicate
The reader will find reported CC50 at 2 days values listed item by item below.

>  <molecule>
COc1cc2c(O[C@H]3OC[C@@]4(COC(=O)c5cccnc5)OC(C)(C)O[C@@H]34)c3c(c(-c4ccc5c(c4)OCO5)c2cc1OC)C(=O)OC3

>  <censoringSign>
=

>  <CC50 at 2 days (nM)>
381

$$$$
>  <molecule>
COc1cc2c(O[C@H]3OC[C@@]4(CO)OC(c5ccccc5)O[C@@H]34)c3c(c(-c4ccc5c(c4)OCO5)c2cc1OC)C(=O)OC3 (some centres unmarked)

>  <censoringSign>
=

>  <CC50 at 2 days (nM)>
184

$$$$
>  <molecule>
COc1cc2c(O[C@H]3OC[C@@]4(CO)OC(c5ccccc5)O[C@@H]34)c3c(c(-c4cc5c(cc4OCc4ccccc4)OCO5)c2cc1OC)C(=O)OC3 (some centres unmarked)

>  <censoringSign>
>

>  <CC50 at 2 days (nM)>
25000

$$$$
>  <molecule>
COc1cc2c(OC3OC[C@@]4(CO[Si](c5ccccc5)(c5ccccc5)C(C)(C)C)OC(c5ccccc5)O[C@@H]34)c3c(c(-c4cc5c(cc4OCc4ccccc4)OCO5)c2cc1OC)C(=O)OC3 (some centres unmarked)

>  <censoringSign>
>

>  <CC50 at 2 days (nM)>
25000

$$$$
>  <molecule>
COc1cc2c(O[C@@H]3OC[C@@]4(CO)OC(c5ccccc5)O[C@@H]34)c3c(c(-c4ccc5c(c4)OCO5)c2cc1OC)C(=O)OC3 (some centres unmarked)

>  <censoringSign>
=

>  <CC50 at 2 days (nM)>
2240

$$$$

====

# assayRemarks: in vitro
# testParameters: human, CC50 (nM)
# YES = CC50 at 2 days below 2000 nM (exclusive); NO = CC50 at 2 days at/above 2000 nM

>  <compound>
COc1cc2c(OC3OCC(O)(CO)C3O)c3c(c(-c4cc5c(cc4O)OCO5)c2cc1OC)C(=O)OC3 (single isomer, unassigned)

>  <category>
NO

$$$$
>  <compound>
COc1cc2c(O[C@H]3OC[C@@]4(COC(=O)c5ccncc5)OC(C)(C)O[C@@H]34)c3c(c(-c4ccc5c(c4)OCO5)c2cc1OC)C(=O)OC3

>  <category>
NO

$$$$
>  <compound>
COc1cc2c(OC3OCC(O)(COC4OCC(O)C(O)C4O)C3OC3OCC(O)C(OC4OCC(O)(CO)C4O)C3O)c3c(c(-c4cc5c(cc4O)OCO5)c2cc1OC)C(=O)OC3 (single isomer, unassigned)

>  <category>
NO

$$$$
>  <compound>
COc1cc2c(O[C@H]3OC[C@@]4(CN5CCOCC5)OC(C)(C)O[C@@H]34)c3c(c(-c4ccc5c(c4)OCO5)c2cc1OC)C(=O)OC3

>  <category>
YES

$$$$
>  <compound>
COc1cc2c(OC3OCC(O)(CO)C3OC3OCC(O)C(O)C3O)c3c(c(-c4cc5c(cc4O)OCO5)c2cc1OC)C(=O)OC3 (single isomer, unassigned)

>  <category>
NO

$$$$
>  <compound>
COc1cc2c(O)c3c(c(-c4ccc5c(c4)OCO5)c2cc1OC)C(=O)OC3 [Diphyllin (7), diphyllin, reference compound]

>  <category>
NO

$$$$
>  <compound>
COc1cc2c(O[C@H]3OC[C@@]4(CNC(C)=O)OC(C)(C)O[C@@H]34)c3c(c(-c4ccc5c(c4)OCO5)c2cc1OC)C(=O)OC3

>  <category>
YES

$$$$
>  <compound>
COc1cc2c(O[C@H]3OC[C@@]4(COC(=O)c5ccccc5)OC(C)(C)O[C@@H]34)c3c(c(-c4ccc5c(c4)OCO5)c2cc1OC)C(=O)OC3

>  <category>
NO

$$$$

====

# System: A549 cells
# testParameters: human, 2 days

>  <compound>
COc1cc2c(OC3OCC(O)(CO)C3OC3OCC(O)C(O)C3O)c3c(c(-c4cc5c(cc4O)OCO5)c2cc1OC)C(=O)OC3 (single isomer, unassigned)

>  <CC50>
> 25 µM

$$$$
>  <compound>
COc1cc2c(OC3OCC(O)(CO)C3O)c3c(c(-c4cc5c(cc4O)OCO5)c2cc1OC)C(=O)OC3 (single isomer, unassigned) [Compound 47]

>  <CC50>
> 25 µM

$$$$
>  <compound>
COc1cc2c(OC3OCC(O)(CO)C3O)c3c(c(-c4cc5c(cc4O)OCO5)c2cc1OC)C(=O)OC3 (single isomer, unassigned) [Compound 46]

>  <CC50>
> 50 µM

$$$$
>  <compound>
COc1cc2c(OC3OCC(O)(CO)C3O)c3c(c(-c4cc5c(cc4O)OCO5)c2cc1OC)C(=O)OC3 (single isomer, unassigned) [Compound 48]

>  <CC50>
> 25 µM

$$$$
>  <compound>
COc1cc2c(OC3OCC(O)(COC4OCC(O)C(O)C4O)C3OC3OCC(O)C(OC4OCC(O)(CO)C4O)C3O)c3c(c(-c4cc5c(cc4O)OCO5)c2cc1OC)C(=O)OC3 (single isomer, unassigned)

>  <CC50>
> 25 µM

$$$$

====

# assayRemarks: Cytotoxicity evaluation using the SRB assay
# testParameters: human, A549 cells, CC50 (nM) A549, Table 2; host A549 cells; triplicate
The reader will find reported CC50 at 2 days values listed item by item below.

>  <molecule>
COc1cc2c(O[C@H]3OC[C@@]4(CO)OC(c5ccccc5)O[C@@H]34)c3c(c(-c4ccc5c(c4)OCO5)c2cc1OC)C(=O)OC3 (stereo partly drawn)

>  <CC50 at 2 days (nM)>
208

$$$$
>  <molecule>
COc1cc2c(O[C@H]3OC[C@@]4(CN=[N+]=[N-])OC(C)(C)O[C@@H]34)c3c(c(-c4ccc5c(c4)OCO5)c2cc1OC)C(=O)OC3

>  <CC50 at 2 days (nM)>
648

$$$$
>  <molecule>
COc1cc2c(O[C@H]3OC[C@@]4(COC(=O)c5cccnc5)OC(C)(C)O[C@@H]34)c3c(c(-c4ccc5c(c4)OCO5)c2cc1OC)C(=O)OC3

>  <CC50 at 2 days (nM)>
483

$$$$

====

# assayRemarks: Cytotoxicity evaluation using the SRB assay
# testParameters: human, A549 cells, CC50 (nM), Table 1; inhibition of cell growth of host A549 cells by 50%; triplicate
measuredQuantity: CC50 at 2 days

>  <molecule>
COc1cc2c(OC3OC[C@@]4(CO[Si](c5ccccc5)(c5ccccc5)C(C)(C)C)OC(c5ccccc5)O[C@@H]34)c3c(c(-c4ccc5c(c4)OCO5)c2cc1OC)C(=O)OC3 (stereo partly drawn) [Compound 16]

>  <measuredQuantity>
CC50 at 2 days

>  <result>
> 20000 nM

$$$$
>  <molecule>
COc1cc2c(O[C@@H]3OC[C@@]4(CO)OC(c5ccccc5)O[C@@H]34)c3c(c(-c4cc5c(cc4OCc4ccccc4)OCO5)c2cc1OC)C(=O)OC3 (stereo partly drawn) [Compound 43]

>  <measuredQuantity>
CC50 at 2 days

>  <result>
> 25000 nM

$$$$
>  <molecule>
COc1cc2c(O[C@H]3OC[C@@]4(CN=[N+]=[N-])OC(C)(C)O[C@@H]34)c3c(c(-c4ccc5c(c4)OCO5)c2cc1OC)C(=O)OC3 [Compound 25]

>  <measuredQuantity>
CC50 at 2 days

>  <result>
1650 nM

$$$$

====

# assayRemarks: Cytotoxicity evaluation using the SRB assay
# testParameters: human, CC50 (nM) A549, Table 2; host A549 cells; triplicate
# label 1 = CC50 at 2 days below 400 nM (exclusive); label 0 = CC50 at 2 days at/above 400 nM

>  <molecule>
COc1cc2c(O[C@H]3OC[C@](O)(CO)[C@H]3O)c3c(c(-c4ccc5c(c4)OCO5)c2cc1OC)C(=O)OC3

>  <category>
label 0

$$$$
>  <molecule>
COc1cc2c(O[C@@H]3OC[C@@]4(COC(C)=O)OC(c5ccccc5)O[C@@H]34)c3c(c(-c4ccc5c(c4)OCO5)c2cc1OC)C(=O)OC3 (stereo partly drawn)

>  <category>
label 0

$$$$
>  <molecule>
COc1cc2c(O[C@H]3OC[C@@]4(CN)OC(C)(C)O[C@@H]34)c3c(c(-c4ccc5c(c4)OCO5)c2cc1OC)C(=O)OC3

>  <category>
label 1

$$$$
>  <molecule>
COc1cc2c(O[C@H]3OC[C@](O)(COC(C)=O)[C@H]3O)c3c(c(-c4ccc5c(c4)OCO5)c2cc1OC)C(=O)OC3

>  <category>
label 1

$$$$
>  <molecule>
COc1cc2c(O[C@H]3OC[C@@]4(COC(C)=O)OC(c5ccccc5)O[C@@H]34)c3c(c(-c4ccc5c(c4)OCO5)c2cc1OC)C(=O)OC3 (stereo partly drawn)

>  <category>
label 1

$$$$
